# measured-target: CDK19 (Homo sapiens, UniProt Q9BWU1)
# Construct: purchased KinomeScan, a division of Ambit Biosciences
# Sequence (Q9BWU1 whole entry): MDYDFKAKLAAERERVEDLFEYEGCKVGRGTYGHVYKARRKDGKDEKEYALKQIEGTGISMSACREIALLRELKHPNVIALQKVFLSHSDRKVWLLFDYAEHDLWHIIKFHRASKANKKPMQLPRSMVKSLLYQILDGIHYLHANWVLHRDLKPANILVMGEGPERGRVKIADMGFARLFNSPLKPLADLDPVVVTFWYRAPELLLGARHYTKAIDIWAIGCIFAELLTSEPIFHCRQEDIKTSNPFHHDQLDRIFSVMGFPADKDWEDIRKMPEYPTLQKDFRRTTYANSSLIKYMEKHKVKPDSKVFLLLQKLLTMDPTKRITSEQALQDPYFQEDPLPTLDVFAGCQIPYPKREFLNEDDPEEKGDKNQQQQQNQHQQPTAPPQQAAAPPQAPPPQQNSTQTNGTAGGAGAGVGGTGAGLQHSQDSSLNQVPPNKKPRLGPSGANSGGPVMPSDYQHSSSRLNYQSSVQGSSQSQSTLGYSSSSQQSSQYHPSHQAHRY
# method-notes: KinomeScan competition binding assay
# assay-setup: 10 μM compound
# cutoff 6 POC applies to POC ligand binding, CDK19; >= gives met, < gives not met

Solved entries:
{"smiles-string": "N#Cc1ccc2ncnc(NCc3ccc(Cl)cc3)c2c1", "measured-target": "CDK19 (Homo sapiens, UniProt Q9BWU1)", "assigned-category": "not met"}
{"smiles-string": "CC(C)CNc1ncnc2ccc(C(F)(F)F)cc12", "measured-target": "CDK19 (Homo sapiens, UniProt Q9BWU1)", "assigned-category": "met"}
{"smiles-string": "N#Cc1ccc2ncnc(NCCc3ccccc3)c2c1", "measured-target": "CDK19 (Homo sapiens, UniProt Q9BWU1)", "assigned-category": "not met"}
{"smiles-string": "COc1ccc2ncnc(NCCc3ccccc3)c2c1", "measured-target": "CDK19 (Homo sapiens, UniProt Q9BWU1)", "assigned-category": "met"}
{"smiles-string": "CCCNc1ncnc2ccc(N3CCOCC3)cc12", "measured-target": "CDK19 (Homo sapiens, UniProt Q9BWU1)", "assigned-category": "met"}

Shift focus to the following entry.
// query Has `N#Cc1ccc2ncnc(NCCc3ccc4ccccc4c3)c2c1` a recorded POC ligand binding, CDK19 greater than or equal to 6 POC?
// result not met
